These measurements were taken from the supplement of paper PMC9135407.

Tested on: primary human hepatic stellate cells (donor 1)
Protocol Summary: scaled lipid accumulation score (0 = DMSO-like, 1 = nortriptyline-like); higher = stronger HSC inactivation (lipid re-accumulation), active = hit call of the paper
Condition Description: library stock concentration: 3.33 mM; 48 h
In all, about 5,800 compounds went through this assay and about 620 (11%) showed activity. This is one part of a sample in which actives are shown more often than they occur.
Exercise: for every item that follows, state its recorded scaled lipid accumulation score.

Before answering, review these 6 worked examples.
>  <Compound>
CNCc1cc(-c2ccccc2F)n(S(=O)(=O)c2cccnc2)c1

>  <scaled lipid accumulation score>
0.046 (inactive)

$$$$
>  <Compound>
COc1ccc(C2=N[C@@H](c3ccc(Cl)cc3)[C@@H](c3ccc(Cl)cc3)N2C(=O)N2CCNC(=O)C2)c(OC(C)C)c1

>  <scaled lipid accumulation score>
0.168 (inactive)

$$$$
>  <Compound>
O=C1Nc2ccc(Cl)cc2/C1=C/c1cc(Cl)c(O)c(Cl)c1 [PKR Inhibitor, Negative Control]

>  <scaled lipid accumulation score>
≤ 0 (inactive)

$$$$
>  <Compound>
CCN(CC)CCCCN1c2ccccc2Oc2ccc(Cl)cc21

>  <scaled lipid accumulation score>
0.225 (inactive)

$$$$
>  <Compound>
Cc1[nH]c(/C=C2\C(=O)Nc3ccc(S(=O)(=O)N(C)c4cccc(Cl)c4)cc32)c(C)c1C(=O)N1CCN(C)CC1

>  <scaled lipid accumulation score>
1.38 (active)

$$$$
>  <Compound>
O=C(c1cncc(Br)c1)N1CCC(N2CCCC2)CC1

>  <scaled lipid accumulation score>
≤ -0.009 (inactive)

$$$$

Give scaled lipid accumulation score for each of the items listed below.
1. COCC[n+]1c2c(n(Cc3cnccn3)c1C)C(=O)c1ccccc1C2=O [YM155 (Sepantronium Bromide)]
2. COc1ccc(NS(=O)(=O)c2sc3ccc(Cl)cc3c2C)cc1N1CCNCC1
3. C[C@@]1(C(=O)Nc2ccc(F)nc2)CCCN1c1nc(Nc2cc(C3CC3)n[nH]2)c2cccn2n1

1. 0.529 (inactive)
2. 0.383 (inactive)
3. ≤ 0 (inactive)

GET /values?readout=scaled lipid accumulation score&item= COc1ccc(C2=NC(c3ccc(Cl)cc3)C(c3ccc(Cl)cc3)N2C(=O)N2CCNC(=O)C2)c(OC(C)C)c1 (stereo not given)
≤ -0.009 (inactive)

* * *

Tested on: primary human hepatic stellate cells (donor 1)
Protocol Summary: scaled lipid accumulation score (0 = DMSO-like, 1 = nortriptyline-like); higher = stronger HSC inactivation (lipid re-accumulation), active = hit call of the paper
Condition Description: library stock concentration: 10 mM; 48 h
Structures can show the parent of a compound that is named as a salt. Hit rate of the full screen: of about 5,800 compounds, about 620 (11%) showed activity.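 How the source made its calls: active = score above a cut-off or among the top three wells of a plate; in these data no inactive exceeds 0.85.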 Only a selection was taken, and actives are over-represented in it overall.
Log the outcome using a class from active, inactive

Some entries whose results are on file:
>  <Molecule>
N#Cc1ccc(NCCNCC(=O)N2CCC[C@H]2C#N)nc1 [NVP DPP 728 dihydrochloride]

>  <Assay Target>
primary human hepatic stellate cells (donor 1)

>  <Assigned Category>
inactive

$$$$
>  <Molecule>
CN1C2CCC1CC(OC(=O)C(O)c1ccccc1)C2 (centres undefined) [Homatropine bromide]

>  <Assay Target>
primary human hepatic stellate cells (donor 1)

>  <Assigned Category>
inactive

$$$$
>  <Molecule>
Cc1cccc(CCN2CCC(C(=O)c3ccc(NS(C)(=O)=O)cc3)CC2)n1 [E-4031 dihydrochloride]

>  <Assay Target>
primary human hepatic stellate cells (donor 1)

>  <Assigned Category>
inactive

$$$$

As a next step, examine the molecule that follows.
Dear colleague, could you share the recorded outcome for CC[C@@H](C(=O)[C@@H](C)[C@@H](O)[C@H](C)CCc1ccc(C)c(O)c1C(=O)O)[C@H]1O[C@](CC)([C@H]2CC[C@](O)(CC)[C@H](C)O2)C[C@@H]1C [Lasalocid sodium] when you have a moment?
inactive

* * *

Tested on: primary human hepatic stellate cells (donor 1)
Protocol Summary: scaled lipid accumulation score (0 = DMSO-like, 1 = nortriptyline-like); higher = stronger HSC inactivation (lipid re-accumulation), active = hit call of the paper
Condition Description: library stock concentration: 1 mM; 48 h
Out of some 5,800 compounds screened, about 620 (11%) showed activity. The list comes from a sample in which actives are over-represented; it also holds close analogues and randomly drawn compounds.
Property: scaled lipid accumulation score

>  <Compound>
CCCCCCCCCCCC(=O)NC[C@]1(C)CCC[C@]2(C)c3ccc(C(C)C)cc3CCC12 (some centres undefined) [Lauric Acid Leelamide]

>  <scaled lipid accumulation score>
0.012 (inactive)

$$$$

// for each compound in input: emit scaled lipid accumulation score
1. CCCCCC=CCC=CCC=CCC=CCCCCCC(=O)O
2. CCCCCCCCCCCCCCCCOC[C@H](CO)OC(C)=O
3. COc1ccc2cc(C(C#N)OC(=O)CC3OC3c3ccccc3)ccc2c1 (centres undefined)

1: ≤ -0.01 (inactive); 2: ≤ 0 (inactive); 3: 0.017 (inactive)

* * *

Test system: primary human hepatic stellate cells (donor 1)
Protocol Summary: scaled lipid accumulation score (0 = DMSO-like, 1 = nortriptyline-like); higher = stronger HSC inactivation (lipid re-accumulation), active = hit call of the paper
Condition Description: library stock concentration: 3.33 mM; 48 h
Counter-ions that a name gives are not always drawn. Among all 5,800 compounds or so, about 620 (11%) showed activity. What follows is part of a selection rich in actives, with near analogues and random picks from the rest.
Property: scaled lipid accumulation score

These solved cases illustrate the format of a correct answer.
>  <Compound>
CN(C)CC/C=C1/c2ccccc2Sc2ccc(Cl)cc21

>  <scaled lipid accumulation score>
0.345 (inactive)

$$$$
>  <Compound>
CC(=O)N[C@H]1[C@H]([C@H](O)[C@H](O)CO)OC(C(=O)O)=C[C@@H]1NC(=N)N

>  <scaled lipid accumulation score>
≤ 0 (inactive)

$$$$
>  <Compound>
CCN1C(=CC(C)=O)Sc2ccc(OC)cc21

>  <scaled lipid accumulation score>
≤ -0.009 (inactive)

$$$$

Could you report scaled lipid accumulation score for every entry in the following list?
1. CC(Oc1cc(-c2cnn(C3CCNCC3)c2)cnc1N)c1c(Cl)ccc(F)c1Cl [(S)-crizotinib]
2. Cc1cc(Nc2ccc(NC(=O)c3ccc(Nc4ccnc5ccccc45)cc3)cc2)nc(N)n1
3. O=C(Cc1ccc(-c2ccc(OCCN3CCOCC3)cc2)cn1)NCc1ccccc1

["0.504 (inactive)", "0.147 (inactive)", "0.093 (inactive)"]

For each listed entry, give its scaled lipid accumulation score.
1. Cc1nc(Nc2ncc(C(=O)Nc3c(C)cccc3Cl)s2)cc(N2CCN(CCO)CC2)n1
2. N=C(N)N [Guanidine HCl]
3. CC(C(=O)O)c1ccc(C(=O)c2cccs2)cc1 (centres undefined)

1. 0.43 (inactive)
2. ≤ 0 (inactive)
3. ≤ 0 (inactive)

List scaled lipid accumulation score for every entry below, keeping the order given.
1. O=c1c2ccccc2oc2ccccc12
2. O=C(O)c1ccccc1
3. CNC(=O)c1ccccc1Sc1ccc2c(/C=C/c3ccccn3)n[nH]c2c1
4. CC(C)n1c(/C=C/C(O)CC(O)CC(=O)O)c(-c2ccc(F)cc2)c2ccccc21 (centres undefined) [Fluvastatin Sodium]
5. O=C1NC(=O)/C(=C/c2ccc(-c3ccc(F)cc3O)o2)S1

["≤ 0 (inactive)", "≤ 0 (inactive)", "≤ 0 (inactive)", "0.188 (inactive)", "0.132 (inactive)"]

* * *

What scaled lipid accumulation score was measured for each of the following?
Tested on: primary human hepatic stellate cells (donor 1)
Protocol Summary: scaled lipid accumulation score (0 = DMSO-like, 1 = nortriptyline-like); higher = stronger HSC inactivation (lipid re-accumulation), active = hit call of the paper
Condition Description: library stock concentration: 80 uM; 48 h
The campaign covered roughly 5,800 compounds. About 620 (11%) showed activity. What follows is part of a selection rich in actives, with near analogues and random picks from the rest.

Kindly give each listed record's scaled lipid accumulation score.
1. CN(C)C/C=C/C(=O)Nc1cccc(Nc2ncc3c(n2)N(C)c2ccccc2C(=O)N3C)c1
2. O=C(Nc1ccc(-c2ccnc(Nc3ccc(N4CCOCC4)cc3)n2)cc1)C1CCCN1 (centres undefined)
3. COc1cc2ncnc(Nc3cc(Br)c(O)c(Br)c3)c2cc1OC
4. NC(=O)c1cccc(-c2cc(Nc3ccc(OC(F)(F)F)cc3)ncn2)c1
5. COc1cc(OC)c(/C=C/S(=O)(=O)Cc2ccc(OC)c(NCC(=O)O)c2)c(OC)c1
6. COc1ccc(-c2ccc3ncc4c(c3c2)n(-c2ccc(N3CCNCC3)c(C(F)(F)F)c2)c(=O)n4C)cn1

1: ≤ -0.009 (inactive); 2: ≤ 0 (inactive); 3: ≤ 0 (inactive); 4: ≤ 0 (inactive); 5: ≤ -0.016 (inactive); 6: 0.133 (inactive)

// each listed compound needs a value for scaled lipid accumulation score
1. COc1cc2c(Oc3ccc(NC(=O)C4(C(=O)Nc5ccc(F)cc5)CC4)cc3F)ccnc2cc1OCCCN1CCOCC1
2. CC(C)(C)c1cc(NC(=O)Nc2ccc(-c3cn4c(n3)sc3cc(OCCN5CCOCC5)ccc34)cc2)no1
3. CC(C)c1cc(-c2n[nH]c(=O)n2-c2ccc3c(ccn3C)c2)c(O)cc1O
4. COc1cc2nccc(Oc3ccc(NC(=O)C4(C(=O)Nc5ccc(F)cc5)CC4)cc3)c2cc1OC
5. CN(C)CCOc1ccc(-c2nc(-c3ccncc3)c(-c3ccc4c(c3)CC/C4=N\O)[nH]2)cc1

0.524 (inactive)
≤ 0 (inactive)
0.602 (inactive)
0.011 (inactive)
0.074 (inactive)

Could you report scaled lipid accumulation score for every entry in the following list?
1. O=c1ncn2nc(Sc3ccc(F)cc3F)ccc2c1-c1c(Cl)cccc1Cl
2. COc1cc2ncnc(Nc3ccc(F)c(Cl)c3)c2cc1NC(=O)/C=C/CN1CCCCC1

1. 0.019 (inactive)
2. ≤ -0.016 (inactive)
